This collection of values is drawn from patent US20020026053A1.

system: PDGF-R; assay: PDGF-R Assay (cellular ELISA, U1242 cells); assay type: cell-based; design: concentration or dose not given beside the values; conditions: protocol P.119
Entries and their PDGF Kinase % Inhibition (P.119) values follow.
quantity: PDGF Kinase % Inhibition (P.119)

[[record]]
compound = "Cc1ccc(C=C2C(=O)Nc3c(Br)cc(Br)c(C)c32)c(C)c1 [10737/H03]"
result = "−21.3%"

[[record]]
compound = "Cc1ccc(C)c(C=C2C(=O)Nc3ccc(I)cc32)c1 [10737/B07]"
result = "18.9%"

[[record]]
compound = "Cc1ccc(C=C2C(=O)Nc3ccc(S(=O)(=O)N4CCOCC4)cc32)c(C)c1 [10737/F03]"
result = "7.8%"

[[record]]
compound = "COc1ccc(C=C2C(=O)Nc3ccc(CCCl)cc32)cc1F [10737/G06]"
result = "−10.2%"

[[record]]
compound = "O=C1Nc2c(Br)cc(Br)cc2C1=Cc1ccc(O)cc1Cl [10739/A06]"
result = "17.8%"

[[record]]
compound = "COc1ccc(Oc2cccc(C=C3C(=O)Nc4c(Br)cc(Br)c(C)c43)c2)cc1 [10739/H08]"
result = "−3.5%"

[[record]]
compound = "O=C1Nc2ccc(S(=O)(=O)N3CCOCC3)cc2C1=Cc1cccc(F)c1F [10737/F05]"
result = "1.0%"

[[record]]
compound = "Cc1c(Br)cc(Br)c2c1C(=Cc1ccccc1Cl)C(=O)N2 [10736/H11]"
result = "−12.7%"

[[record]]
compound = "O=C1Nc2ccc(I)cc2C1=CC1COc2ccccc2O1 (stereo not shown) [10739/B05]"
result = "4.7%"

[[record]]
compound = "COc1cccc(C=C2C(=O)Nc3c(Br)cc(Br)c(C)c32)c1 [10736/H10]"
result = "−21.0%"

[[record]]
compound = "COc1ccc(Oc2cccc(C=C3C(=O)Nc4ccc(CCCl)cc43)c2)cc1 [10739/G08]"
result = "1.3%"

[[record]]
compound = "O=C1Nc2ccc(S(=O)(=O)N3CCOCC3)cc2C1=Cc1ccc(CO)o1 [10739/F11]"
result = "0.8%"

[[record]]
compound = "O=C1Nc2ccc(S(=O)(=O)Nc3ccc(C(F)(F)F)cc3)cc2C1=Cc1ccoc1 [10739/E10]"
result = "25.6%"

[[record]]
compound = "CN(C)CCCOc1ccc(C=C2C(=O)Nc3ccc(CCCl)cc32)cc1 [10739/G09]"
result = "13.9%"

[[record]]
compound = "O=C1Nc2c(Br)cc(Br)cc2C1=Cc1ccoc1 [10739/A10]"
result = "−1.1%"

[[record]]
compound = "COc1ccc(C=C2C(=O)Nc3c(Br)cc(Br)c(C)c32)cc1C [10739/H02]"
result = "−18.6%"

[[record]]
compound = "O=C1Nc2ccc(S(=O)(=O)Nc3ccc(C(F)(F)F)cc3)cc2C1=Cc1cccc(Oc2cccc(C(F)(F)F)c2)c1 [10737/E11]"
result = "38.0%"

[[record]]
compound = "O=C1Nc2ccc(S(=O)(=O)N3CCOCC3)cc2C1=CC1COc2ccccc2O1 (stereo not shown) [10739/F05]"
result = "−4.5%"

[[record]]
compound = "Cc1c(Br)cc(Br)c2c1C(=Cc1cccc(F)c1F)C(=O)N2 [10737/H05]"
result = "−6.2%"

